assay: clinical; conditions: human, plasma, po, 35 mg/m2, t1/2, oral 35 mg/m^2 with Compound A; mean
parameter: half-life (h)
Kindly provide the numeric value in h only, without the unit symbol.

In: Please give the measured half-life for this molecule: CC(=O)O[C@@]12CO[C@@H]1C[C@H](O)[C@@]1(C)C(=O)[C@H](O)C3=C(C)[C@@H](OC(=O)[C@H](O)[C@@H](NC(=O)OC(C)(C)C)c4ccccc4)C[C@@](O)([C@@H](OC(=O)c4ccccc4)[C@H]21)C3(C)C [docetaxel]
Out: 29.2

----------
assay: clinical; conditions: human, plasma, po, 35 mg/m^2, Analyte Concentration, oral 35 mg/m^2, cohort 1; time 24.0 hr; individual subjects
parameter: concentration at 24 hr (ng/mL)
Write the number in ng/mL without appending the unit.

In: Can you look up the measured concentration at 24 hr of CC(=O)O[C@@]12CO[C@@H]1C[C@H](O)[C@@]1(C)C(=O)[C@H](O)C3=C(C)[C@@H](OC(=O)[C@H](O)[C@@H](NC(=O)OC(C)(C)C)c4ccccc4)C[C@@](O)([C@@H](OC(=O)c4ccccc4)[C@H]21)C3(C)C [docetaxel] for me?
Out: 1.25

----------
test: Two phase 1 studies of docetaxel capsules administered orally in combination with HM30181A; assay type: in vivo, human; conditions: human, plasma, po, oral 150 mg/m^2 with HM30181A 15 mg
parameter: AUC

In: # AUC lookup, item "CC(=O)O[C@@]12CO[C@@H]1C[C@H](O)[C@@]1(C)C(=O)[C@H](O)C3=C(C)[C@@H](OC(=O)[C@H](O)[C@@H](NC(=O)OC(C)(C)C)c4ccccc4)C[C@@](O)([C@@H](OC(=O)c4ccccc4)[C@H]21)C3(C)C"
Out: 888 ng·h/mL

----------
test: clinical; settings: male, human, in vivo, iv, Reported half-life
parameter: half-life (h)
A number alone suffices; assume h.

In: What does the record list as half-life for "CC(=O)O[C@@]12CO[C@@H]1C[C@H](O)[C@@]1(C)C(=O)[C@H](O)C3=C(C)[C@@H](OC(=O)[C@H](O)[C@@H](NC(=O)OC(C)(C)C)c4ccccc4)C[C@@](O)([C@@H](OC(=O)c4ccccc4)[C@H]21)C3(C)C" ?
Out: 17.4

----------
assay: clinical; conditions: human, plasma, po, 150 mg/m2
parameter: Tmax (h)
Give a bare numeral; the unit h is implied.

In: Quick one: Tmax of "CC(=O)O[C@@]12CO[C@@H]1C[C@H](O)[C@@]1(C)C(=O)[C@H](O)C3=C(C)[C@@H](OC(=O)[C@H](O)[C@@H](NC(=O)OC(C)(C)C)c4ccccc4)C[C@@](O)([C@@H](OC(=O)c4ccccc4)[C@H]21)C3(C)C" ?
Out: 2.67

----------
test: clinical; details: male, human, in vivo, po, 75 mg/m2, Tmax
parameter: Tmax (h)
Quick note: give the figure in h, leave out the unit.

In: # input compound: CC(=O)O[C@@]12CO[C@@H]1C[C@H](O)[C@@]1(C)C(=O)[C@H](O)C3=C(C)[C@@H](OC(=O)[C@H](O)[C@@H](NC(=O)OC(C)(C)C)c4ccccc4)C[C@@](O)([C@@H](OC(=O)c4ccccc4)[C@H]21)C3(C)C [docetaxel] ; wanted: its Tmax
Out: 1.83

----------
experiment: clinical; conditions: male, human, in vivo, po, 75 mg/m2, AUC0-24
parameter: AUC(0-t)

In: Please report the recorded AUC(0-t) for "CC(=O)O[C@@]12CO[C@@H]1C[C@H](O)[C@@]1(C)C(=O)[C@H](O)C3=C(C)[C@@H](OC(=O)[C@H](O)[C@@H](NC(=O)OC(C)(C)C)c4ccccc4)C[C@@](O)([C@@H](OC(=O)c4ccccc4)[C@H]21)C3(C)C" .
Out: 313 to 336 ng·h/mL

----------
assay: clinical; conditions: human, in vivo, po, 150 mg/m2
parameter: half-life (h)
// note: answer is a bare numeric in h

In: Record request: half-life value, item "CC(=O)O[C@@]12CO[C@@H]1C[C@H](O)[C@@]1(C)C(=O)[C@H](O)C3=C(C)[C@@H](OC(=O)[C@H](O)[C@@H](NC(=O)OC(C)(C)C)c4ccccc4)C[C@@](O)([C@@H](OC(=O)c4ccccc4)[C@H]21)C3(C)C"
Out: 53.2

----------
assay: Two phase 1 studies of docetaxel capsules administered orally in combination with HM30181A; type: in vivo, human; conditions: human, plasma, iv, 75 mg/m2, IV 75 mg/m^2
parameter: AUC
Please provide the amount together with its unit, number first.

In: Dear colleague, I am looking for the recorded AUC of the following compound: "CC(=O)O[C@@]12CO[C@@H]1C[C@H](O)[C@@]1(C)C(=O)[C@H](O)C3=C(C)[C@@H](OC(=O)[C@H](O)[C@@H](NC(=O)OC(C)(C)C)c4ccccc4)C[C@@](O)([C@@H](OC(=O)c4ccccc4)[C@H]21)C3(C)C"
Out: 2420 ng·h/mL

----------
test: clinical; settings: human, plasma, po, 225 mg/m2, AUC0-24, oral 225 mg/m^2 with Compound A; Mean, N=3
parameter: AUC(0-t) (ng·h/mL)
Give the value, in units of ng·h/mL, as a plain number.

In: Item CC(=O)O[C@@]12CO[C@@H]1C[C@H](O)[C@@]1(C)C(=O)[C@H](O)C3=C(C)[C@@H](OC(=O)[C@H](O)[C@@H](NC(=O)OC(C)(C)C)c4ccccc4)C[C@@](O)([C@@H](OC(=O)c4ccccc4)[C@H]21)C3(C)C [docetaxel] has what recorded AUC(0-t)?
Out: 792

----------
assay: clinical; details: male, human, in vivo, iv, 60 mg/m2, AUC0-t
parameter: AUC(0-t) (ng·h/mL)
// return numeric value only (unit: ng·h/mL, not printed)

In: # lookup: AUC(0-t) of "CC(=O)O[C@@]12CO[C@@H]1C[C@H](O)[C@@]1(C)C(=O)[C@H](O)C3=C(C)[C@@H](OC(=O)[C@H](O)[C@@H](NC(=O)OC(C)(C)C)c4ccccc4)C[C@@](O)([C@@H](OC(=O)c4ccccc4)[C@H]21)C3(C)C"
Out: 1890

----------
test: clinical; conditions: male, human, in vivo, iv, 60 mg/m2, AUC0-24
parameter: AUC(0-t)

In: Looking for the measured AUC(0-t) of CC(=O)O[C@@]12CO[C@@H]1C[C@H](O)[C@@]1(C)C(=O)[C@H](O)C3=C(C)[C@@H](OC(=O)[C@H](O)[C@@H](NC(=O)OC(C)(C)C)c4ccccc4)C[C@@](O)([C@@H](OC(=O)c4ccccc4)[C@H]21)C3(C)C [docetaxel] , can you help?
Out: 1350 to 1970 ng·h/mL

----------
assay: clinical; conditions: male, human, in vivo, iv, 60 mg/m2, AUC0-inf
parameter: AUC(0-inf) (ng·h/mL)
Your answer should be a plain number; it is taken to be in ng·h/mL.

In: // query AUC(0-inf) value for entry "CC(=O)O[C@@]12CO[C@@H]1C[C@H](O)[C@@]1(C)C(=O)[C@H](O)C3=C(C)[C@@H](OC(=O)[C@H](O)[C@@H](NC(=O)OC(C)(C)C)c4ccccc4)C[C@@](O)([C@@H](OC(=O)c4ccccc4)[C@H]21)C3(C)C"
Out: 1970

----------
assay: clinical; settings: male, human, in vivo, po, 75 mg/m2, AUC0-inf
parameter: AUC(0-inf) (ng·h/mL)
Hi! Could you send only the number? It should be in ng·h/mL, unit omitted.

In: Any idea what AUC(0-inf) was measured for CC(=O)O[C@@]12CO[C@@H]1C[C@H](O)[C@@]1(C)C(=O)[C@H](O)C3=C(C)[C@@H](OC(=O)[C@H](O)[C@@H](NC(=O)OC(C)(C)C)c4ccccc4)C[C@@](O)([C@@H](OC(=O)c4ccccc4)[C@H]21)C3(C)C [docetaxel] ?
Out: 478

----------
test: Two phase 1 studies of docetaxel capsules administered orally in combination with HM30181A; type: in vivo, human; settings: human, plasma, po, oral 75 mg/m^2 with HM30181A 15 mg
parameter: AUC (ng·h/mL)
Numbers only here, please. The scale is ng·h/mL.

In: What measured AUC goes with "CC(=O)O[C@@]12CO[C@@H]1C[C@H](O)[C@@]1(C)C(=O)[C@H](O)C3=C(C)[C@@H](OC(=O)[C@H](O)[C@@H](NC(=O)OC(C)(C)C)c4ccccc4)C[C@@](O)([C@@H](OC(=O)c4ccccc4)[C@H]21)C3(C)C" ?
Out: 692

----------
assay: clinical; conditions: human, plasma, po, 150 mg/m2, Reported half-life, oral 150 mg/m^2; individual values; sampling to 168 h, LLOQ 0.2 ng/mL
parameter: half-life (h)
Value expressed in h; do not type the unit.

In: Find the recorded half-life belonging to "CC(=O)O[C@@]12CO[C@@H]1C[C@H](O)[C@@]1(C)C(=O)[C@H](O)C3=C(C)[C@@H](OC(=O)[C@H](O)[C@@H](NC(=O)OC(C)(C)C)c4ccccc4)C[C@@](O)([C@@H](OC(=O)c4ccccc4)[C@H]21)C3(C)C" and report it.
Out: 72
